Listed here are compounds together with their documented ED50.
System: PC/RS cortical neurons
Test: protection by anti-psychotic drugs against MK-801 (NRH)-induced vacuoles in rats
Assay type: in vivo
Conditions: Rattus norvegicus, Cortical neurone, ip
Method: Control animals received saline or DMSO, but no anti-psychotic drugs. Test animals were injected ip with an antipsychotic drug, listed above and in Table 2. Vacuoles were counted and data were processed as described in Example 1.
quantity-measured: ED50 (mg/kg)

1. CN1CCN(C2=Nc3cc(F)ccc3Cc3ccccc32)CC1 [Fluperlapine]    2.3
2. CSc1ccc2c(c1)N(CCC1CCCCN1C)c1ccccc1S2 (stereo not drawn) [Thioridazine]    55.3
3. C[C@@H]1CN(CCCn2c3ccccc3c3ccccc32)C[C@H](C)N1 [Rimcazole]    17.8
4. Clc1ccc2c(c1)C(N1CCNCC1)=Nc1ccccc1O2 [Amoxapine]    75
5. Cc1cc2c(s1)Nc1ccccc1N=C2N1CCN(C)CC1 [Olanzapine]    1.4
6. Cc1ccccc1NC(=N)Nc1ccccc1C [Di(2-tolyl)guanidine, di(2-tolyl)guanidine]    22.2
7. O=C(CCCN1CCC(O)(c2ccc(Cl)cc2)CC1)c1ccc(F)cc1 [Haloperidol]    5.1
8. CN1CCN(C2=Nc3ccccc3Oc3ccc(Cl)cc32)CC1 [Loxapine]    23.6
